# assaySystem: human CGRP receptor (SK-N-MC cells) (Homo sapiens, UniProt O60894+Q16602)
# Construct: SK-N-MC cells that endogenously express the human CGRP receptor; endogenous in cells; host or cells: SK-N-MC cells
# Sequence (Q16602 23-461): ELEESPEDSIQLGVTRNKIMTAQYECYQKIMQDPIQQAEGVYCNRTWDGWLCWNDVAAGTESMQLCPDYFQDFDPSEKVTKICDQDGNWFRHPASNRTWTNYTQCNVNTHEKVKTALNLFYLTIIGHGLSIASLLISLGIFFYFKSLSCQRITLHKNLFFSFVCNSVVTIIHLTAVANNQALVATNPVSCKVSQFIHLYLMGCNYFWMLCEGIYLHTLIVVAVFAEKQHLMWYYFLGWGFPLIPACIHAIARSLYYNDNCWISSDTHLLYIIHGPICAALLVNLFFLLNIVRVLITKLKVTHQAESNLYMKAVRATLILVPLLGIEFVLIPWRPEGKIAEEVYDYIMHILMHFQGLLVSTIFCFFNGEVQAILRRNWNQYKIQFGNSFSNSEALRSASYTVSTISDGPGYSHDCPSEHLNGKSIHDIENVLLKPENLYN
# Sequence (O60894 27-148): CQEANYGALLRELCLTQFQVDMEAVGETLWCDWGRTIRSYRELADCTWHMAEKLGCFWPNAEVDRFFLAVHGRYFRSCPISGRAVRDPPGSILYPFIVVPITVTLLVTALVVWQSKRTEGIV
# procedureDetails: Cyclic AMP Assay, functional antagonism of CGRP-induced cyclic AMP formation
# Format: cell-based
# cond: SK-N-MC cells, 0.3 nM CGRP; read-out: cAMP Function IC50
experimentalReadout: IC50

Illustrative cases are given below, each with its answer.
molecule=COc1ccc(C(=O)N[C@@H](CC(=O)N2CCC(N3Cc4ccccc4NC3=O)CC2)C(=O)N2CCC(N3CCCCC3)CC2)cc1 experimentalreadout=IC50 readoutvalue="> 1000 nM"
molecule="Cc1cc(CC(NC(=O)N2CCC(N3Cc4ccccc4NC3=O)CC2)C(=O)N2CCCC2)cc2cn[nH]c12 (racemic)" experimentalreadout=IC50 readoutvalue="< 10 nM"

Form field IC50 for item O=C1Nc2ccccc2C2(CCN(C(=O)CC(Cc3ccc4[nH]ncc4c3)C(=O)N3CCC(N4CCCCC4)CC3)CC2)O1 (racemic) on human CGRP receptor (SK-N-MC cells) (Homo sapiens, UniProt O60894+Q16602): 100 to 1000 nM
